- subjectOfTest: LOXL2 (Homo sapiens, UniProt Q9Y4K0)
- Construct: purchased R&D Systems/Bio-techne
- Sequence (Q9Y4K0 26-774, species assumed): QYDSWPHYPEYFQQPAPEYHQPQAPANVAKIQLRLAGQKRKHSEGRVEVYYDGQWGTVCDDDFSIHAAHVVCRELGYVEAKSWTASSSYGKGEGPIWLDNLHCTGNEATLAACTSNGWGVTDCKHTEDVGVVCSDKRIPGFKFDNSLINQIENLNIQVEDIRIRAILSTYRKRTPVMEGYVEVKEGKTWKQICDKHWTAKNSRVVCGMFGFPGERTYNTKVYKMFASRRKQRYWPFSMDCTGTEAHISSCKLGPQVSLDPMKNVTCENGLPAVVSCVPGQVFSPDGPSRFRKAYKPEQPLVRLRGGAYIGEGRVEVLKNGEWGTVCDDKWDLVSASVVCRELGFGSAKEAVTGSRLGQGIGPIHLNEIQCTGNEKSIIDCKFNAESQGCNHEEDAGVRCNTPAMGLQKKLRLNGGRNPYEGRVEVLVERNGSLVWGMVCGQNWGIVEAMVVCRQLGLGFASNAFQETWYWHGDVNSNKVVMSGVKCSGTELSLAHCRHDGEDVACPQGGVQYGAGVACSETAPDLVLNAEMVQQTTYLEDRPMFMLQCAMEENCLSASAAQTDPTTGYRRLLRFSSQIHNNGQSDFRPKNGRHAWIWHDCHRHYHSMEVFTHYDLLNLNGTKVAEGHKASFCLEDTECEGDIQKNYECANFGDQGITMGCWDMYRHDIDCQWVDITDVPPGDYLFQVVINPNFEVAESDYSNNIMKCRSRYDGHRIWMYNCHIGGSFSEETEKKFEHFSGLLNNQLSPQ
- testName: LOX isoform activity assay (ROS Glo), LOXL2
- Type: biochemical
- statedConditions: 1 hr incubation with enzyme; read-out: LOXL2 IC50 b) 1 hr
quantity: pIC50
In plain terms, pIC50 is the concentration in mol/L turned into minus its base-10 logarithm.

Solved entries (count: 8):
INSERT INTO results (molecule, subjectoftest, quantity, numericvalue) VALUES
  ('CC1(C)C[C@@H]2CN(C(=O)C(F)S(=O)(=O)CCN)C[C@H]1N(c1ccc(N3CCS(=O)(=O)CC3)cc1)C2 (stereo partly drawn)', 'LOXL2 (Homo sapiens, UniProt Q9Y4K0)', 'pIC50', 6.96),
  ('CCOc1ccc(N2C[C@H]3CN(C(=O)NCCS(=O)(=O)CCN)C[C@@H]2C(C)(C)C3)cc1', 'LOXL2 (Homo sapiens, UniProt Q9Y4K0)', 'pIC50', 6.24),
  ('CCOc1ccc(N2C[C@H]3CN(C(=O)Nc4ccc(S(=O)(=O)CCN)cc4)C[C@@H]2C(C)(C)C3)cc1', 'LOXL2 (Homo sapiens, UniProt Q9Y4K0)', 'pIC50', 4.70),
  ('NCCS(=O)(=O)CC(=O)N1CCN(c2ncccn2)CC1', 'LOXL2 (Homo sapiens, UniProt Q9Y4K0)', 'pIC50', 6.37),
  ('NCCS(=O)(=O)C(F)C(=O)N1C[C@@H]2CN(c3c(F)c(F)c(F)c(F)c3F)C[C@@H]2C1 (stereo partly drawn)', 'LOXL2 (Homo sapiens, UniProt Q9Y4K0)', 'pIC50', 6.62),
  ('Cc1ccc(S(=O)(=O)N2C[C@H]3CN(C(=O)CS(=O)(=O)CCN)C[C@H]3C2)cc1', 'LOXL2 (Homo sapiens, UniProt Q9Y4K0)', 'pIC50', 6.77),
  ('CCOc1ccc(N2C[C@H]3CN(C(=O)C(CC(C)C)S(=O)(=O)CCN)C[C@@H]2C(C)(C)C3)cc1 (stereo partly drawn)', 'LOXL2 (Homo sapiens, UniProt Q9Y4K0)', 'pIC50', 5.96),
  ('NCCS(=O)(=O)C(F)C(=O)N1C[C@@H]2CN(c3ccc(F)cc3)C[C@@H]2C1 (mixture of isomers)', 'LOXL2 (Homo sapiens, UniProt Q9Y4K0)', 'pIC50', 6.64);

Now turn to the next molecule.
Quick one: pIC50 of CCOc1ccc(N2C[C@H]3CN(C(=O)C(C)S(=O)(=O)CCN)C[C@@H]2C(C)(C)C3)cc1 (mixture of isomers) ?
6.39
